assay-summary: NOD1 signaling inhibitors, primary screen, cell-based, luminescence, uHTS (AID 1578);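 further: HEK-293T reporter cells stimulated with the NOD1 agonist gamma-tri-DAP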
test-context: NOD1-driven NF-kB luciferase reporter cells, at 4 µM
Screen size: about 290,000 compounds; about 3,000 (1%) were called active. No stated cut-off is given here; in the data, active means inhibition mostly above about 36% (no sharp cut-off); inactive means mostly below about 34%. Many of the other results were omitted from the sample, so actives are more common in it than they were.
Outcomes: yes (1) for active, no (0) for inactive

>  <molecule>
CCn1c(SCC(=O)NC2CCCCC2)nnc1-c1ccccn1

>  <group>
no (0)

$$$$
>  <molecule>
CC(=C/c1ccc(C(C)C)cc1)/C=N/NC(=O)CSc1ccccn1

>  <group>
no (0)

$$$$
>  <molecule>
Cc1cccc(-n2ncc3c(N4CCCC4)ncnc32)c1

>  <group>
no (0)

$$$$
>  <molecule>
CCC(=O)Nc1cccc2c1C(=O)N(C)C2=O

>  <group>
yes (1)

$$$$
>  <molecule>
COc1ccc(S(=O)(=O)N2Cc3ccccc3CC2C(=O)N2CCOCC2)cc1 (stereo unspecified)

>  <group>
no (0)

$$$$
>  <molecule>
CN1C(=O)c2cccc(NC(=O)CCc3ccccc3)c2C1=O

>  <group>
no (0)

$$$$
